# Test system: MDA-MB-231 breast
# methodNotes: NCI-60 one-dose screen, 48 h
# experimentalSetup: 10 µM unless noted
The panel holds about 83,000 compounds, 20% with a hit somewhere; the sample as a whole holds those more often. Active and inactive are the calls of the source. Rule for the calls: active = growth percent below 10; inactive = the rest.
The reply should be one of these categories: True = active, False = inactive

Q: Hi team, can someone confirm the assay call for COc1ccc2nc3cc(Cl)ccc3c(Nc3ccc(N(C)C)cc3)c2c1 ?
A: False

Q: Tell me the recorded outcome of this test for O=C1CC(c2ccc3c(c2)OCO3)c2ncn(-c3ccc(Cl)cc3)c2N1 (centres undefined) .
A: False

----------
# Test system: SNB-75 CNS
# methodNotes: NCI-60 one-dose screen, 48 h (100 = growth as untreated, 0 = no growth, -100 = all killed)
# experimentalSetup: 10 µM unless noted
About 83,000 compounds went through this panel and 20% of them were active in at least one assay; those are over-represented in the sample as a whole. Activity calls are given as the source filed them. The calls were made as follows: active = growth percent below 10; inactive = the rest.
observedProperty: growth

Q: Can you share its growth? I mean this compound: O=C1NC(=O)/C(=C/c2ccc3nccc(-c4ccncc4)c3c2)S1
A: -45.9% (active)

Q: # lookup: growth of COc1cc2c(Oc3ccc4[nH]c(C)cc4c3F)ncnc2cc1OCCCN1CCCC1
A: 50.9% (inactive)

Q: Please look up its growth: Cc1cc2c(-c3nc4ccccn4c3N)c(O)c(O)cc2c(O)c1-c1c(C)cc2c(-c3nc4ccccn4c3N)c(O)c(O)cc2c1O
A: 18% (inactive)

Q: So what does the record say about growth for COc1cc(NC2CCC(=O)N2c2ccc(Cl)cc2Cl)cc(OC)c1OC (stereo not given) ?
A: 86.5% (inactive)

Q: GET /values?readout=growth&item= O=C(Nc1nc2cccc(-c3ccc(CN4CCS(=O)(=O)CC4)cc3)n2n1)C1CC1
A: 90.3% (inactive)

---
Q: Fill in: growth of Cc1cc([C@@H](C)Nc2ccccc2C(=O)O)c2nc(N3CCOCC3)cc(=O)n2c1 is ___
A: -19.5% (active)

Q: GET /values?readout=growth&item= CC1CCC(n2cnc3c(Cl)ncnc32)O1 (stereo not given)
A: 91.9% (inactive)

Q: So what's the measured growth for this one? COc1cc(NCCN(CC(C)C)CC(C)C)c2ncc(C)cc2c1
A: 95.3% (inactive)

Q: Any idea what growth was measured for CC(C)(C)OC(=O)N1CCC(O)[C@@H](O[Si](c2ccccc2)(c2ccccc2)C(C)(C)C)[C@H]1/C=C/c1ccccc1 (stereo not given in full) ?
A: 46.8% (inactive)

Q: Reported growth for N[C@@H]1CCCN(c2c(/C=C3\SC(=O)NC3=O)cccc2-c2ccccc2)C1 : what is it?
A: -14.1% (active)

Q: Could you tell me which growth is on file for CC(=Nc1ccccc1)C1=C(O)C(Cc2ccc(O)cc2)NC1=O (stereo not given) ?
A: 15.2% (inactive)

Q: I'd like to know its growth. The compound in question is CC1(C=O)NC(=O)NC1=O (stereo not given)
A: 92.8% (inactive)

Q: Given the entry CC(=O)Oc1ccccc1C(=O)N=C1[Se]CCN1C(=O)c1ccccc1OC(C)=O , report its measured growth.
A: -65.2% (active)

Q: Entry COc1ccc(-c2cc3c(oc2=O)-c2ccccc2OC3OC(C)=O)cc1 (stereo not given) : reported growth = ?
A: 100% (inactive)

Q: What measured growth goes with CC(=O)C1CC(C)CCC1C(C)C (stereo not given) ?
A: 81.1% (inactive)

Q: What measured growth goes with CC(C)c1ccc(/C=N/Nc2nc3ccccc3s2)cc1 ?
A: 103% (inactive)

Q: Field request: growth | item: C=CC(=O)N1CCC[C@@H](n2nc(-c3ccc(Oc4ccccc4)cc3)c3c(N)ncnc32)C1
A: 19.6% (inactive)

Q: Fill in: growth of Cc1ccc(NC(=O)c2ccc(CN3CC[C@H](N(C)C)C3)c(C(F)(F)F)c2)cc1Nc1nccc(-c2cncnc2)n1 is ___
A: -85.9% (active)

Q: Consider the compound CCN1CCN(c2nc(C)cc(N(CCNc3ccnc4cc(Cl)ccc34)Cc3ccc4c(c3)OCO4)n2)CC1 and give its measured growth.
A: 9.98% (active)

Q: // query growth value for entry O=C(Cc1ccc(/C=C/C(=O)c2ncc[nH]2)cc1)Nc1ccc(S(F)(F)(F)(F)F)cc1
A: 72.8% (inactive)

Q: Please give the measured growth for this compound: Cc1[nH]n(C(N)=S)c(=O)c1N=Nc1ccc(S(=O)(=O)Nc2ccncn2)cc1
A: 73.7% (inactive)

----------
# System: MCF7 breast
# methodNotes: NCI-60 one-dose screen, 48 h (100 = growth as untreated, 0 = no growth, -100 = all killed)
# experimentalSetup: 10 µM unless noted
# Description: Growth inhibition of the MCF7 human tumor cell line is measured as a screen for anti-cancer activity. Cells are grown in 96 well plates and exposed to the test compound for 48 hours. Compounds are tested at a single concentration, which is 10^-5 M for most compounds. The reported endpoint is percent growth (GI% or GIPRCNT), where numbers from 0 - 100% represent growth inhibition, and numbers from -100% - 0 represent cell death. For example, a value of 40 represents 60% growth inhibition. […]
The panel holds about 83,000 compounds, 20% with a hit somewhere; the sample as a whole holds those more often.
observedProperty: growth (%)
# unit: % | format: bare number

Worked examples follow.
Q: Reported growth, compound CC(=O)C1CC(C)CCC1C(C)C (stereo not given) : ____
A: 85.3

Q: Any idea what its growth is? The compound is Cc1ccc(-c2nc3ccc(Cl)cn3c2NC2CCCCC2)o1
A: 72.1

***
Q: Name the reported growth value associated with the compound C=CC(=O)N(C)[C@H]1C[C@H]2OC(C)(C1OC)n1c3ccccc3c3c4c(c5c6ccccc6n2c5c31)C(=O)NC4 (stereo not given in full)
A: 12.5

Q: Give the measured growth of c1ccc2c(c1)CCN(NCCN1CCCC1)C2 .
A: 96.5

Q: Recorded growth of Cc1cccc(C)c1N1C(c2ccccc2)=NNC12C=CC(=O)c1c(O)cccc12 (stereo not given) , please.
A: 78.7

Q: Value lookup for growth; key = Nc1nc(Nc2ccccc2)c(C=Nc2ccccc2)c(=O)[nH]1
A: 92.5

Q: # input compound: O=c1nc2c(-c3nc4ccccc4s3)n[nH]n2c2sc3c(c12)CCCC3 ; wanted: its growth
A: 89.1

Q: What does the data say about its growth? Entry: O=C(Cc1ccc(-c2ccc(OCCN3CCOCC3)cc2)cn1)NCc1ccccc1
A: 10.7

Q: // lookup growth for CCS(=O)(=O)N1CCN(c2ccc(Nc3ncc(C(N)=O)c(NC4CC4)n3)cc2)CC1
A: 68.5

Q: Data request, read-out growth, for CCc1cc2c(cc1N1CCC(N3CCOCC3)CC1)C(C)(C)c1[nH]c3cc(C#N)ccc3c1C2=O
A: 13.8

----------
Listed here: items and their measured growth.
# System: K-562 leukemia
# methodNotes: NCI-60 one-dose screen, 48 h (100 = growth as untreated, 0 = no growth, -100 = all killed)
# experimentalSetup: 10 µM unless noted
# Method: Cells are grown in 96 well plates and exposed to the test compound for 48 hours. Compounds are tested at a single concentration, which is 10^-5 M for most compounds. The reported endpoint is percent growth (GI% or GIPRCNT), where numbers from 0 - 100% represent growth inhibition, and numbers from -100% - 0 represent cell death. For example, a value of 40 represents 60% growth inhibition. A value of 0 means no net growth occurred over the course of the experiment. […]
About 83,000 compounds went through this panel and 20% of them were active in at least one assay; those are over-represented in the sample as a whole. Activity calls are given as the source filed them. Rule for the calls: active = growth percent below 10; inactive = the rest.

Q: So what's the measured growth for this one? CN(C[C@@H]1COCCO1)S(=O)(=O)Nc1ccc2ccc3ncc(-c4cnn(C)c4)cc3c(=O)c2c1
A: 39.5% (inactive)

Q: Name the recorded growth for COc1ccc2c(CCCc3ccc(Cl)cc3Cl)c3[n+](cc2c1OC)CCc1cc2c(cc1-3)OCO2 .
A: 6.33% (active)

Q: Fill in the blank: the reported growth of COc1cc2nc(Nc3cccc(Cl)c3)nc(N)c2cc1OC is ____.
A: 24% (inactive)

Q: I'd like to know its growth. The molecule in question is CSC1=C(N)C(=O)c2[nH]cc(CO)c2C1=N
A: -24.1% (active)

Q: What does the data say about its growth? Entry: Nc1c(Cl)cccc1[N+](=O)[O-]
A: 101% (inactive)

Q: What measured growth goes with Cc1cc2c3c(cccc3c1)C(=O)c1ccccc1-2 ?
A: 98.8% (inactive)

Q: Returns the measured growth for the input molecule. Input: COc1cnc2c(c1)C(=O)c1c-2n(CCCN2CCC(N)CC2)c(=O)c2cc([N+](=O)[O-])ccc12
A: 49.2% (inactive)

Q: Look up growth: O=C(c1ccc(F)c(F)c1Nc1ccc(I)cc1F)N1CC(O)([C@@H]2CCCCN2)C1
A: -26.8% (active)

Q: Recorded growth of CC[n+]1c(/C=C/C=C2\N(C)c3ccccc3C2(C)C)sc2ccccc21 , please.
A: 2.44% (active)

Q: Value lookup for growth; key = CCc1nc2cc(/C=C/C(=O)NO)ccc2c(=O)n1CCc1ccc(F)cc1
A: 4.68% (active)
